# Assay System: Serine/threonine-protein kinase AKT (Homo sapiens, UniProt P31751+Q9Y243+P31749)
# Procedure Text: Inhibition of Akt (unknown origin)
# Format: protein assay
Outcome Measure: IC50 (nM)
One number for each entry, in nM.

>  <Smiles Input>
Nc1ncnc(N2CCC(c3nc(-c4ccc(F)c(C(F)(F)F)c4)cn3CCN3CCCC3)CC2)c1-c1ccc(F)cc1

>  <Assay System>
Serine/threonine-protein kinase AKT (Homo sapiens, UniProt P31751+Q9Y243+P31749)

>  <IC50 (nM)>
140

$$$$
>  <Smiles Input>
Cc1ncc(-c2c(N)ncnc2N2CCC(c3nc(-c4ccc(F)c(C(F)(F)F)c4)cn3C)CC2)s1

>  <Assay System>
Serine/threonine-protein kinase AKT (Homo sapiens, UniProt P31751+Q9Y243+P31749)

>  <IC50 (nM)>
850

$$$$

Pending molecule:
Value of IC50 reported for the molecule `CCc1c(N)ncnc1N1CCC(c2nc(-c3ccc(F)c(C(F)(F)F)c3)cn2CCN2CCC2)CC1` is 4
